target: prostate specific antigen (PSA) (human, UniProt P07288 25-261); assay: SPR; 5 mM MgCl2; RT (electrochemistry), pH 7.4; PSA-1, B4 and truncations: 1x PBS (10 mM phosphate, 154 mM NaCl); 24nt variants: 10 mM Tris-HCl, 150 mM NaCl, 5 mM KCl, 5 mM MgCl2; Gli1 series: 50 mM Tris-HCl, 250 mM NaCl, 5 mM MgCl2; details: protein: native; label: 5' 6FAM; hairpin
Sequence (P07288 25-261): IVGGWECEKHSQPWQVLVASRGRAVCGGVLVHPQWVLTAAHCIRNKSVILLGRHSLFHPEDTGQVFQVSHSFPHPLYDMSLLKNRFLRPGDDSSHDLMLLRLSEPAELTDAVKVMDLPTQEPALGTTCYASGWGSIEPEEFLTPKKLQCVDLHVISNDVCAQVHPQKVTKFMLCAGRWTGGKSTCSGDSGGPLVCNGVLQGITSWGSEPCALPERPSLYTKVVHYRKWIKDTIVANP
Hi there, I'd appreciate the recorded Kd for every entry that follows.
One number for each entry, in nM.

binder	Kd [nM]
TTTTTAATTAAAGCTCGCCATCAAATAGCTTT (ssDNA) [5Ts-24nt-3Ts (deltaPSap4#5)]	232

Query binder follows.
Qu. Query (binder): TTTTTAATTAAAGCTCGCCATCAAATAGC (ssDNA) [5Ts-24nt] ; field requested: Kd
Ans. 545
